System: SR leukemia
procedure details: NCI-60 one-dose screen, 48 h (100 = growth as untreated, 0 = no growth, -100 = all killed)
condition label: 10 µM unless noted
This is part of a sample that, as a whole, favours compounds with a hit. Of some 83,000 tested, about 20% had one in any assay.
recorded endpoint: growth (%)

>>> print(df.to_string())
                                   compound  reported
0  NS(=O)(=O)c1ccc(C(=O)N=Nc2c(O)[nH]c3c(F)cccc23)cc1       103
1  N#Cc1cc(-c2ccnc(Nc3ccc(NC(=O)CCl)cc3)n2)ccc1N1CCCC1      1.78
2    CC(Sc1ccccc1)C(=O)O (stereo not given)       153
3  COc1cc(NS(=O)(=O)C(C)C)cc(-c2cc(-c3ccc(N4CCNCC4)cc3)cnc2N)c1      54.1
4  O=C(c1ccc(Nc2nccc(NCCCNc3ccnc4cc(Cl)ccc34)n2)cc1)N1CCCCC1     -2.26

====

Tested on: A498 renal
procedure details: NCI-60 one-dose screen, 48 h
condition label: 10 µM unless noted
The panel holds about 83,000 compounds, 20% with a hit somewhere; the sample as a whole holds those more often. Active and inactive are the calls of the source. How the source made its calls: active means growth percent below 10; inactive means the rest.
Outcomes: active, inactive

>>> print(df.to_string())
                                   molecule  category
0  O=C(/C=C/c1cccs1)Nc1ncc(Cc2ccc(Cl)c(Cl)c2)s1  inactive
1  CC1=CC=C(NC(=O)/C=C/c2ccccc2)CC1Nc1nccc(-c2cccnc2)n1 (stereo not given)  inactive
2   O=c1ccc2nc(-c3ccccn3)nn(-c3ccccc3)c-2c1  inactive
3  COc1cc(-c2nn(-c3cccc(NC(=O)CCN4CCN(C)CC4)c3)cc2-c2ccncc2)ccc1Cl  inactive
4  O=C(NCc1cccnc1)/C(=C\c1ccc(Br)cc1)S(=O)(=O)c1ccccc1    active

====

Tested on: U251 CNS
procedure details: NCI-60 one-dose screen, 48 h (100 = growth as untreated, 0 = no growth, -100 = all killed)
condition label: 10 µM unless noted
Compounds without any hit were thinned out: in the full panel of roughly 83,000, 20% have a hit.
Parameter: growth. Scope: all listed entries.

molecule	growth, %
O=c1cc(N/N=C/c2ccc(F)cc2)c2cc(Cl)ccc2[nH]1	94.4
Cc1cc2nc(C(Cl)Cl)nc(-c3ccc(Cl)cc3)n2n1	4.15
C=C(C)[C@@H]1CC[C@]2(C(=O)N3CCN(C)CC3)CC[C@]3(C)[C@H](CC[C@@H]4[C@@]5(C)CC(CCCNC(C)=O)(CCCNC(C)=O)[C@H](OC(C)=O)C(C)(C)[C@@H]5CC[C@]43C)[C@@H]12	98.2
C#CCOCC1CN(C)C(=O)O1 (centres undefined)	103

====

Tested on: OVCAR-8 ovarian
procedure details: NCI-60 one-dose screen, 48 h
condition label: 10 µM unless noted
Procedure: Growth inhibition of the OVCAR-8 human tumor cell line is measured as a screen for anti-cancer activity. Cells are grown in 96 well plates and exposed to the test compound for 48 hours. Compounds are tested at a single concentration, which is 10^-5 M for most compounds. The reported endpoint is percent growth (GI% or GIPRCNT), where numbers from 0 - 100% represent growth inhibition, and numbers from -100% - 0 represent cell death. For example, a value of 40 represents 60% growth inhibition. […]
This is part of a sample that, as a whole, favours compounds with a hit. Of some 83,000 tested, about 20% had one in any assay. Calls of active or inactive are those of the source. How the source made its calls: active means growth percent below 10; inactive means the rest.
Outcomes: active, inactive

molecule	measured target	category
CN(C)CCN1C(=O)c2c(c3c4ccccc4n4c3c3c2c2ccccc2n3C2CC(O)C(O)C4(C)O2)C1=O (centres undefined)	OVCAR-8 ovarian	inactive
C=C(CNCCc1ccc(O)cc1)[C@@H]1CC[C@]2(CO)CC[C@]3(C)[C@H](CC[C@@H]4[C@@]5(C)CCC(NCCc6ccc(O)cc6)C(C)(C)[C@@H]5CC[C@]43C)[C@@H]12 (some centres undefined)	OVCAR-8 ovarian	active
CC1=CC=C(NC(=O)/C=C/c2ccccc2)CC1Nc1nccc(-c2cccnc2)n1 (centres undefined)	OVCAR-8 ovarian	inactive
C#CCn1cnc2cnc(Nc3cccc(NC(=O)CCl)c3)nc21	OVCAR-8 ovarian	active
O=C1C(=C(O)c2ccccc2)C(=O)c2ccccc21	OVCAR-8 ovarian	inactive
CC1(C)C(N)=Nc2cc(OCCCN3Cc4ccc(OCCc5cn(CC(=O)N6CCC(CCN7CCCC7)CC6)nn5)cc4C3)c(OCC3CC3)cc21	OVCAR-8 ovarian	inactive
CCCCCCNC(=O)Oc1ccc(/C(=C(/CC)Cc2ccccc2)c2ccc(OCCCN(C)C)cc2)cc1	OVCAR-8 ovarian	inactive
O=C(CCl)n1nnnc1Cc1ccccc1	OVCAR-8 ovarian	inactive
Fc1ccc(NC(c2ccc(F)cc2)C2CCN(CCCCc3ccccc3)CC2)cc1 (centres undefined)	OVCAR-8 ovarian	active

====

Test system: NCI-H460 lung
procedure details: NCI-60 one-dose screen, 48 h (100 = growth as untreated, 0 = no growth, -100 = all killed)
condition label: 10 µM unless noted
About 83,000 compounds went through this panel and 20% of them were active in at least one assay; those are over-represented in the sample as a whole.
recorded endpoint: growth (%)

>>> df
                                   compound  recorded_endpoint  uom  reported
0  CCOC(=O)c1c(-c2ccc(OC)cc2)c(C#N)c2c(C#N)c(N)nn2c1N             growth    %      9.75
1  CC(=O)OC[C@]12CCC(C)(C)C=C1[C@H]1CC[C@@H]3[C@@]4(C)CCCNC(C)(C)[C@@H]4CC[C@@]3(C)[C@]1(C)CC2             growth    %      49.4
2  COc1cc(CNC(=O)CCCC/C=C/C(C)C)ccc1OCc1cn(-c2ccc([N+](=O)[O-])cc2)nn1             growth    %      99.8
3                   O=C(NNc1ccccc1)c1ccccc1             growth    %      85.1
4  COc1nc(=O)n(C2C=CC(=O)O2)cc1F (stereo not given)             growth    %       110
5  CCCCCCCCCCCCCCCCCCOc1cccc(CC(=O)OCC[N+](CC)(CC)CC)c1             growth    %        67
6  COc1ccc2c(c1)CC[C@@H]1[C@@H]2CC[C@]2(C)C3C(=CCC4C(=O)N(c5ccccc5)C(=O)C43)C[C@@H]12 (stereo not given in full)             growth    %      93.7
7         COc1cc2cc(NCc3ccncc3)nc(C)c2cc1OC             growth    %       102
8  FC(F)(F)Sc1ccc(/C=C/c2cc(/C=C/c3ccc(SC(F)(F)F)cc3)n(-c3ccccc3)n2)cc1             growth    %      99.8
9                             N=c1ccccn1CCO             growth    %       114

====

Tested on: MCF7 breast
procedure details: NCI-60 one-dose screen, 48 h
condition label: 10 µM unless noted
This is part of a sample that, as a whole, favours compounds with a hit. Of some 83,000 tested, about 20% had one in any assay. Active and inactive are the calls of the source. The calls were made as follows: active = growth percent below 10; inactive = the rest.
Outcomes: active, inactive

                               input_smiles  category
0  CCN(c1cc(-c2ccc(CN3CCC(/C=C/S(=O)(=O)c4ccccc4)CC3)cc2)cc(C(=O)NCc2c(C)cc(C)[nH]c2=O)c1C)C1CCOCC1  inactive
1                       CCCc1cc(C(N)=S)ccn1  inactive
2  C=CCN1C=CC(=O)[C@H](O[Si](C)(C)C(C)(C)C)[C@@H]1/C=C/c1ccccc1    active
3  COc1ccc(Nc2ncnc3ccc(-c4cncc(NS(C)(=O)=O)c4)cc23)cc1Cl  inactive
4     Cc1ccc(/C=C2\COc3ccc(O)c(O)c3C2=O)cc1  inactive
5  Clc1ccc2c(c1)N(c1ncnc3ccc(-c4cnc5[nH]ccc5c4)cc13)CC2    active
6  CCC(=C(c1ccc(OCCCN(C)C)cc1)c1ccc(OCCCN(C)C)cc1)c1ccc(Cl)cc1    active
7  O=C1/C(=C/c2ccccc2)CN(C(=O)C(Cl)Cl)C/C1=C\c1ccccc1    active
8  O=C(CCN1CCOCC1)Nc1cccc(-n2cc(-c3ccncc3)c(-c3ccc(Cl)c(O)c3)n2)c1  inactive

====

Tested on: NCI-H460 lung
procedure details: NCI-60 one-dose screen, 48 h
condition label: 10 µM unless noted
About 83,000 compounds went through this panel and 20% of them were active in at least one assay; those are over-represented in the sample as a whole. Activity calls are given as the source filed them. The calls were made as follows: active = growth percent below 10; inactive = the rest.
Outcomes: y for active, n for inactive

compound	category
CCOc1nc(-c2ccccc2)cc2c(O)c(C(=O)N/N=C/c3ccc(N(C)C)cc3)[nH]c(=O)c12	n
CCOC(=O)C(=CCC(C)C)C(=O)OCC	n
CCCCCCCCCCCCCCCC(=O)O[C@@H]1[C@@H](O)[C@@H](O)C([C@H](NC(=O)[C@@H]2C[C@@H](CCC)CN2C)[C@H](C)Cl)O[C@@H]1SC (some centres undefined)	n
CCCCSc1ccc2nc(-c3ccc(OCCCN=C(N)N)cc3)cn2c1	n
c1ccc(-c2cc(-c3cc(-c4ccccc4)on3)no2)cc1	n
C=CCN1C=CC(=O)[C@H](O[Si](C)(C)C(C)(C)C)[C@@H]1/C=C/c1ccccc1	y
C#CCn1cnc2cnc(Nc3cccc(NC(=O)CCl)c3)nc21	y
O=[N+]([O-])c1ccc2[nH]c3nccc(NCc4cccc(Cl)c4)c3c2c1	n
Cc1cccc(-c2nnc(SCC(=O)Nc3ncc(Cc4ccccc4)s3)n2N2C(=O)CSC2=S)c1	n
